# protocol.details: protein stability index of a GFP-peptide fusion (GPS, HEK-293T) (PSI 1-6); higher = more stable;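 also: 24-mer peptide tiles fused after GFP, lentivirally expressed, FACS-sorted into six equal bins by GFP/DsRed ratio, decoded by Illumina sequencing, PSI is the read-weighted mean bin number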
# experimental.setup: treatment: MLN4924 1 uM, 8 h; c terminus: a fixed tail appended
# label = 1.0 if protein stability index >= 3 else 0.0

{"input.sequence": "WAFSCGTWLPSRAEWLLAVRSIQP [AASDHPPT]", "class.label": 0.0}
{"input.sequence": "DGRFEKRQGNPSWKKQQKCDECGK [ZNF396]", "class.label": 1.0}
{"input.sequence": "RFEQEAVAVDSNLRVRELQRKVDG [CCDC89]", "class.label": 1.0}
{"input.sequence": "EKSHQVLAQLLDTLLAIGTKLPEN [INTS4]", "class.label": 1.0}
{"input.sequence": "GPIGGMMPPQPGIPQQQGMRPPMP [ZNF207]", "class.label": 1.0}
{"input.sequence": "CPAELFTNTRSDLDVFGRGDNISD [LUC7L3]", "class.label": 1.0}
{"input.sequence": "NRRLQLLEEENKERAKREMVMYSI [MFF]", "class.label": 1.0}
{"input.sequence": "QAIQMRLVDVACKHLTDTSHGVRN [INTS4]", "class.label": 0.0}
{"input.sequence": "QVANSAFVERVRKRGFEVVYMTEP [HSP90AB1]", "class.label": 0.0}
{"input.sequence": "FVSAGAAAGVAAAFGAPIGGTLFS [CLCN6]", "class.label": 0.0}
{"input.sequence": "PTYSDFCQFRPPVRVNDGGGSHPS [VDR]", "class.label": 1.0}
{"input.sequence": "GLSVSSRFSSGGACGLGGGYGGGF [KRT16]", "class.label": 0.0}
{"input.sequence": "AKQTKRMLDMKVNPIQGLASKWDY [COX4I1]", "class.label": 0.0}
{"input.sequence": "AGKWRSYKGELFDKTPVLLTDYPV [MYORG]", "class.label": 0.0}
{"input.sequence": "FFHLSALKGYLYAVGGRNAAGELP [KLHL13]", "class.label": 0.0}
{"input.sequence": "RPEITSRAINLLFDIARIERCNQL [ZER1]", "class.label": 0.0}
{"input.sequence": "ELALFQMSVLWLEHDRETRMQYAP [KLHL14]", "class.label": 0.0}
{"input.sequence": "RGSVARPTQGPETPRSPEGTTEAA [PXN]", "class.label": 1.0}
{"input.sequence": "NARGASIFSVTALDPDSKENAQII [PCDHGA10]", "class.label": 1.0}
{"input.sequence": "WKFPVPVLKTSRSTPLSPAYISLV [KLHL13]", "class.label": 0.0}
{"input.sequence": "EKAVANFDRTEWVQIRRLEAAGES [ZC2HC1C]", "class.label": 1.0}
{"input.sequence": "PGEPNNAGNNEHCGNIKAPSLQAW [CD207]", "class.label": 1.0}
{"input.sequence": "PRKRRRNGNEEDNHLPPQTKRSSR [FAM104A]", "class.label": 1.0}
{"input.sequence": "EEDLQSQSETQGLEGAQAPLAVEE [MAGEA10]", "class.label": 1.0}
{"input.sequence": "SGRHILEDSCAELGESKEHMESRM [SDE2]", "class.label": 1.0}
{"input.sequence": "MSHAAEPARDGVEASAEGPRAVFV [TFE3]", "class.label": 1.0}
{"input.sequence": "DIYILPSDNSGQVSPPESPTVTTS [BCL2L13]", "class.label": 1.0}
{"input.sequence": "NVVTIGLAFFPFLHRLFREKSLDQ [PHTF1]", "class.label": 0.0}
{"input.sequence": "EVVTPDNMCMGRTSRGKLGGQDSF [ETS1]", "class.label": 1.0}
{"input.sequence": "LSDVQNPAISITENVLHFKAQGHG [HACD3]", "class.label": 1.0}
{"input.sequence": "NDRVQTIITQLEDSRRVTKENSHQ [TRIM63]", "class.label": 1.0}
{"input.sequence": "PSLQPSRKLSPTEPKNYGSYSTQA [SCAMP3]", "class.label": 1.0}
{"input.sequence": "SASRKSAEQLRIELNAEKFKNSLL [WEE1]", "class.label": 1.0}
{"input.sequence": "SEQLVNFTGKAEMGGPFSYVYFFC [TMEM106C]", "class.label": 0.0}
{"input.sequence": "RRSMKRKALFTCPFNGDCRITKDN [VDR]", "class.label": 1.0}
{"input.sequence": "LATLDPLALDREPPPHLLPEKHQV [WDR88]", "class.label": 1.0}
{"input.sequence": "PPWGLGPGAGDPAPGIGPPEPWPG [MYCL]", "class.label": 1.0}
{"input.sequence": "GGYLQRTTYDRRSSQERKFMEERE [RSPH3]", "class.label": 1.0}
